Form: system (Plasmin (Homo sapiens, UniProt P00747)), quantity (pIC50), values below.
One number for each entry, as −log10 of the molar value.

COc1cc(C(=N)N)ccc1OC(=O)c1ccc(C)cc1	5.30

Please look at the items below and tell me pIC50 for each one, in order.
1. N=C(N)c1ccc(OC(=O)c2ccc(O)cc2)c(C(=O)c2ccccc2)c1
2. N=C(N)c1ccc(OC(=O)c2ccc(C=O)cc2)c(C(=O)c2ccccc2)c1
3. CCCCOc1ccc(C(=O)Oc2ccc(C(=N)N)cc2[N+](=O)[O-])cc1
4. COc1cc(C(=N)N)ccc1OC(=O)c1ccc(CNC(=O)OCc2ccccc2)cc1
5. N=C(N)c1ccc(OC(=O)c2ccc(CNC(=O)OCc3ccccc3)cc2)c([N+](=O)[O-])c1
6. N=C(N)c1ccc(OC(=O)C2CC2)c(C(=O)c2ccccc2)c1
7. N=C(N)Nc1ccc(C(=O)Oc2ccc(C(=N)N)cc2[N+](=O)[O-])cc1

1: 6.22; 2: 6.70; 3: 5.52; 4: 6.70; 5: 6.70; 6: 5.70; 7: 6.15

Please look at the items below and tell me pIC50 for each one, in order.
1. N=C(N)c1ccc(OC(=O)c2ccccc2)c(Cl)c1 [Compound 26, 4-amidino-2-chlorophenyl benzoate]
2. COc1ccc(C(=O)Oc2ccc(C(=N)N)cc2C(=O)c2ccccc2)cc1

[6.40, 6.52]

###

target: Thrombin (Homo sapiens); experiment: biochemical; settings: TAME hydrolysis; read-out: ID50, thrombin
MEASUREMENT_NAME: IC50 (nM)
Give bare numbers, in nM.

Some molecules with recorded IC50:
COc1cc(C(=N)N)ccc1OC(=O)c1ccc(C)cc1	3000
COc1cc(C(=N)N)ccc1OC(=O)c1ccc(NC(=N)N)cc1	2000
CC(C)(C)c1ccc(C(=O)Oc2ccc(C(=N)N)cc2C(=O)c2ccccc2)cc1	200

Please look at the items below and tell me IC50 for each one, in order.
1. N=C(N)c1ccc(OC(=O)C2CC2)c([N+](=O)[O-])c1
2. CN(C)c1ccc(C(=O)Oc2ccc(C(=N)N)cc2C(=O)c2ccccc2)cc1

1. 500
2. 200

###

Biological target: UniProt:P00760
Sequence (P00760 24-246): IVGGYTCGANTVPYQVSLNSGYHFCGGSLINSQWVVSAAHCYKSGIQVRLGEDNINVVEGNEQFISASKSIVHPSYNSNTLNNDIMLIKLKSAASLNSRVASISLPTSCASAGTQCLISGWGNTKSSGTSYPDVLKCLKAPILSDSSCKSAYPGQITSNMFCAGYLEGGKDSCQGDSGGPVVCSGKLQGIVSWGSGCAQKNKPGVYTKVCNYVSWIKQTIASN
Experiment: Anti-trypsin activity (inhibition of TAME hydrolysis)
Format: biochemical
Conditions: read-out: ID50, trypsin
Would you kindly list IC50 for each of these molecules?
Answers are plain numbers, in µM.

CN(C)c1ccc(C(=O)Oc2ccc(C(=N)N)cc2C(=O)c2ccccc2)cc1 [Compound 66]	0.01

Please look at the items below and tell me IC50 for each one, in order.
1. N=C(N)c1ccc(OC(=O)c2ccccc2)c(NC(=O)c2ccccc2)c1 [Compound 30, 4-amidino-2-benzoylaminophenyl benzoate]
2. N=C(N)c1ccc(OC(=O)c2ccc(CNC(=O)OCc3ccccc3)cc2)c([N+](=O)[O-])c1 [Compound 61]

0.3
0.2

Please look at the items below and tell me IC50 for each one, in order.
1. CC=CC=CC(=O)Oc1ccc(C(=N)N)cc1C(=O)OC [Compound 5]
2. COc1cc(C(=N)N)ccc1OC(=O)c1ccc(NC(=N)N)cc1 [Compound 71]
3. COC(=O)c1cc(C(=N)N)ccc1OC(=O)c1ccc(CN)cc1 [Compound 60]
4. N=C(N)c1ccc(OC(=O)[C@H]2CC[C@H](CNC(=O)OCc3ccccc3)CC2)c(C(=O)c2ccccc2)c1 [Compound 20]
5. N=C(N)c1ccc(OC(=O)c2ccccc2)c(Cl)c1 [Compound 26, 4-amidino-2-chlorophenyl benzoate]
6. COc1cc(C(=N)N)ccc1OC(=O)CCCCCNC(=N)N [Compound 14]
7. N=C(N)c1ccc(OC(=O)c2ccccc2)c([N+](=O)[O-])c1 [Compound 27, 4-amidino-2-nitrophenyl benzoate]

1: 0.7; 2: 0.04; 3: 1; 4: 1; 5: 0.4; 6: 10; 7: 0.3

Please look at the items below and tell me IC50 for each one, in order.
1. N=C(N)c1ccc(OC(=O)c2ccc(OCc3ccccc3)cc2)c(C(=O)c2ccccc2)c1 [Compound 45]
2. COc1cc(C(=N)N)ccc1OC(=O)c1ccccc1 [Compound 23, 4-amidino-2-methoxyphenyl benzoate]
3. COc1cc(C(=N)N)ccc1OC(=O)c1ccc(CNC(=O)OCc2ccccc2)cc1 [Compound 57]
4. N=C(N)c1ccc(OC(=O)c2ccc(C=O)cc2)c(C(=O)c2ccccc2)c1 [Compound 52]
5. COC(=O)c1cc(C(=N)N)ccc1OC(=O)[C@H]1CC[C@H](CNC(=O)OCc2ccccc2)CC1 [Compound 18]
6. CC(C)(C)c1ccc(C(=O)Oc2ccc(C(=N)N)cc2C(=O)c2ccccc2)cc1 [Compound 39]
7. COc1cc(C(=N)N)ccc1OC(=O)/C=C/c1ccccc1 [Compound 31, 4-amidino-2-methoxyphenyl cinnamate]

1: 0.02; 2: 10; 3: 2; 4: 3; 5: 3; 6: 0.01; 7: 8

Please look at the items below and tell me IC50 for each one, in order.
1. COC(=O)c1cc(C(=N)N)ccc1OC(=O)c1ccc(CNC(=O)OCc2ccccc2)cc1 [Compound 59]
2. CC(=O)Oc1ccc(C=CC(=O)Oc2ccc(C(=N)N)cc2C(=O)c2ccccc2)cc1 [Compound 54]
3. N=C(N)c1ccc(OC(=O)C2CC2)c(C(=O)c2ccccc2)c1 [Compound 8]
4. COC(=O)c1cc(C(=N)N)ccc1OC(=O)c1ccc(C=O)cc1 [Compound 51]

1. 0.5
2. 0.02
3. 2
4. 0.2
